biological target: rat adrenergic α1B receptor (Rattus norvegicus, UniProt P15823); construct: rat adrenergic α1B receptor obtained from Wistar Rat liver; from tissue; host or cells: Wistar rat liver; assay: Radioligand binding, adrenergic α1B ([3H]Prazosin); settings: 0.1 μM compound; read-out: Percentage inhibition of ligand binding, Adrenergic α1B
Sequence (P15823 whole entry): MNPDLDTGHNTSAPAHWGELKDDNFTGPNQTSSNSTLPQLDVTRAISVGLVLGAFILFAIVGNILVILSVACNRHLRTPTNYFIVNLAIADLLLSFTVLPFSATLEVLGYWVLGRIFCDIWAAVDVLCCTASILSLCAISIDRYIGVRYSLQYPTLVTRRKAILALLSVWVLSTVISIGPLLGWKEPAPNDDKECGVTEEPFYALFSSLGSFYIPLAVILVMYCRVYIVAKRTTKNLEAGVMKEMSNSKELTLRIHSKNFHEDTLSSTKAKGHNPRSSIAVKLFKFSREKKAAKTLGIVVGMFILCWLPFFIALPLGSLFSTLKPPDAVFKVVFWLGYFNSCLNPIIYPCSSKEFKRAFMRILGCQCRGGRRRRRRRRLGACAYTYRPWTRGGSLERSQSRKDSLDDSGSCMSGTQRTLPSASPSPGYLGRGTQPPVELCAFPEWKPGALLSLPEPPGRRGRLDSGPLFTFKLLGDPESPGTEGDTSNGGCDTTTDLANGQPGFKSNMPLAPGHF
RECORDED_METRIC: inhibition at 0.1 µM (%)
Give bare numbers, in %.

Examples with their reported inhibition at 0.1 µM follow.
Cc1ccc2c(c1)c1c(n2CC(O)c2ccncc2)CCN(CCS(=O)(=O)O)C1 (stereo not drawn) = -4
CCC1c2c(c3cc(C)ccc3n2CC(O)c2ccncc2)CCN1C (stereo not drawn) = 11
C/C(=C\c1ccccc1)n1c2c(c3cc(C)ccc31)CN(C)CC2 = 50
Cc1ccc2c(c1)c1c(n2C#Cc2ccc(S(N)(=O)=O)cc2)CN(C)CC1 = 65
Cc1cc2c3c(n(CC(C)(O)c4cccnc4)c2cn1)CCN1CCCC31 (stereo not drawn) = 2

Hello, I would appreciate it if you could give inhibition at 0.1 µM for each entry below.
1. C/C(=C/n1c2c(c3cc(Cl)ccc31)CN(C)CC2)c1cc(F)c(F)cc1Cl
2. CCNC(Cn1c2c(c3cc(C)ccc31)CN(C)CC2)c1ccncc1 (stereo not drawn)
3. Cc1ccc2c(c1)c1c(n2CC(NC2CCCC2)c2ccncc2)CCN(C)C1 (stereo not drawn)

a:
1: 36; 2: 6; 3: 30

q: Please list inhibition at 0.1 µM recorded for the compound C/C(=C\n1c2c(c3cc(C)ccc31)CN(C)CC2)c1ccc(C)s1
a: 62

###

What Percentage inhibition of ligand binding, Adrenergic α2B was measured for each of the following?
target: human recombinant adrenergic α2B receptor (Homo sapiens); construct: expressed in transfected cells; host or cells: CHO-K1; experiment: Radioligand binding, adrenergic α2B ([3H]Rauwolscine); conditions: compound at 0.03 μM; [3H]Rauwolscine; repeat assays, each datapoint shown; 0.03 µM
Sequence (P18089 whole entry): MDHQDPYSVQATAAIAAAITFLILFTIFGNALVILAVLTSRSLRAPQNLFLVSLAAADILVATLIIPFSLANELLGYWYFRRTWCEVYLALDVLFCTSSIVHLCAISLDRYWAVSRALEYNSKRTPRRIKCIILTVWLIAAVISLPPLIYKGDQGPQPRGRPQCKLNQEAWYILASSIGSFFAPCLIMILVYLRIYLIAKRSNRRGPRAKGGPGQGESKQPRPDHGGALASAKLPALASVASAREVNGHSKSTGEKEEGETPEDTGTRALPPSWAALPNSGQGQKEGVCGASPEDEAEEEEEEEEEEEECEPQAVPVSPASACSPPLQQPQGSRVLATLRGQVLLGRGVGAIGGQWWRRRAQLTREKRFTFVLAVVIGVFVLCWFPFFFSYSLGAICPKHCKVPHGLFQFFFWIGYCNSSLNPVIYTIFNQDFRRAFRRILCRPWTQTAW

CN1CCc2c(c3ccc(Cl)cc3n2CC(O)c2ccncc2)C1 (single isomer, unassigned) [53a] = 37%
COc1cccc2c3c(n(CC(O)c4ccncc4)c12)CCN(C)C3 (single isomer, unassigned) [44a] = 33%
COc1cccc2c3c(n(CC(O)c4ccncc4)c12)CCN(C)C3 (stereo not shown) [compound 44] = 56%

Kindly consider the entry below.
q: Specify the recorded Percentage inhibition of ligand binding, Adrenergic α2B for CN1CCc2c(c3cc(C(F)(F)F)ccc3n2CC(O)c2cccnc2)C1 (single isomer, unassigned) [59b] , system: human recombinant adrenergic α2B receptor (Homo sapiens).
a: 31%

###

Biological target: human recombinant adrenergic α2A receptor (Homo sapiens)
Construct: expressed in transfected cells; host or cells: insect Sf9 cells
Sequence (P08913 1-465): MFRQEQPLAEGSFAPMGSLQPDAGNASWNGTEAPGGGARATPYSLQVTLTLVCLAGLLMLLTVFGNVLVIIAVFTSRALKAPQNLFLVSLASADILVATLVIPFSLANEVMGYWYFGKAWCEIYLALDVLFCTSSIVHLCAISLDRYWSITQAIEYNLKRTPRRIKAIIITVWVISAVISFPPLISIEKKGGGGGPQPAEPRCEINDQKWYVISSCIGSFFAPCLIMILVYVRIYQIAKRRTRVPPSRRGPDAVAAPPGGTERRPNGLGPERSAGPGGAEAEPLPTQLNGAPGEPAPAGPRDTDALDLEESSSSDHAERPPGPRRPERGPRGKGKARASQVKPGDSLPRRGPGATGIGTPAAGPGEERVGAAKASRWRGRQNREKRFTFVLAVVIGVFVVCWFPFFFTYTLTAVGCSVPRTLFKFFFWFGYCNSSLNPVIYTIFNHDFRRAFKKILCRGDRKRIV
Test: Radioligand binding, adrenergic α2A ([3H]MK-912)
Conditions: 0.1 μM compound; read-out: Percentage inhibition of ligand binding, Adrenergic α2A
What inhibition at 0.1 µM was measured for each of the following?
Numbers only, in %.

Examples with their reported inhibition at 0.1 µM follow.
C/C(=C\n1c2c(c3cc(Cl)ccc31)CCN(C)CC2)c1cccc(F)c1 = 90
CCCCCCC(=O)OC(Cn1c2c(c3cc(C)ccc31)CN(C)CC2)c1ccncc1 (stereo not drawn) = 60
OC(Cn1c2c(c3cccnc31)C1CCCN1CC2)c1ccncc1 (stereo not drawn) = 0
Cc1ccc2c(c1)c1c(n2C2=C(c3cc4ccccc4s3)CCC2)CCN(C)C1 = 93
Cc1ccc2c(c1)c1c(n2CC(O)C2CCCCC2)CCN(C)C1 (stereo not drawn) = -2

Hello, I would appreciate it if you could give inhibition at 0.1 µM for each entry below.
1. Cc1ccc2c(c1)c1c(n2CC(O)c2ccncc2)CCN(CCO)C1 (stereo not drawn)
2. COc1ccc(C#Cn2c3c(c4cc(Cl)ccc42)CCN(C)CC3)cc1F
3. CN1C2CCC1c1c(n(CC(O)c3ccncc3)c3ccc(Cl)cc13)C2 (stereo not drawn)
4. C/C(=C\n1c2c(c3cc(C)ccc31)CN(C)CC2)c1ccccn1
5. Cc1ccc2c(c1)c1c(n2CC(O)c2ccncc2)CCN(CC(=O)O)C1 (stereo not drawn)
6. Cc1ccc2c(c1)c1c(n2CCc2cccc(N(C)C)c2)CCN(C)C1
7. C/C(=C\n1c2c(c3cc(Cl)ccc31)CN(C)CC2)c1cccc(S(C)(=O)=O)c1

a:
-3
50
0
82
12
54
60

Hello, I would appreciate it if you could give inhibition at 0.1 µM for each entry below.
1. Cc1ccc2c(c1)c1c(n2CC(O)c2ccc(O)nc2)CCN(C)C1 (stereo not drawn)
2. Cc1ccc2c(c1)c1c(n2C=C(c2ccccc2)c2ccccc2)CCN(C)C1
3. Cc1ccc2c(c1)c1c(n2CC(C)(OC(=O)C(C)(C)C)c2cccnc2)CCN(C)C1 (single isomer, unassigned) [II-16b]
4. CC(O)(Cn1c2c(c3cc(CO)ccc31)CNCC2)c1cccnc1 (stereo not drawn)
5. CSc1ccc(/C(C)=C/n2c3c(c4cc(Cl)ccc42)CN(C)CC3)cc1

a:
[0, 63, 32, 10, 97]

q: Please list inhibition at 0.1 µM recorded for the compound Cc1ccc2c(c1)c1c(n2CC(O)c2ccncc2)C(C)N(C)CC1 (stereo not drawn)
a: 28

Where do these numbers come from? They come from patent US8791132B2.
